Ref: PubChem BioAssay AID1220

TARGET: Mannose-6-phosphate isomerase (Homo sapiens) (UniProt P34949)
Sequence (P34949 whole entry, looked up): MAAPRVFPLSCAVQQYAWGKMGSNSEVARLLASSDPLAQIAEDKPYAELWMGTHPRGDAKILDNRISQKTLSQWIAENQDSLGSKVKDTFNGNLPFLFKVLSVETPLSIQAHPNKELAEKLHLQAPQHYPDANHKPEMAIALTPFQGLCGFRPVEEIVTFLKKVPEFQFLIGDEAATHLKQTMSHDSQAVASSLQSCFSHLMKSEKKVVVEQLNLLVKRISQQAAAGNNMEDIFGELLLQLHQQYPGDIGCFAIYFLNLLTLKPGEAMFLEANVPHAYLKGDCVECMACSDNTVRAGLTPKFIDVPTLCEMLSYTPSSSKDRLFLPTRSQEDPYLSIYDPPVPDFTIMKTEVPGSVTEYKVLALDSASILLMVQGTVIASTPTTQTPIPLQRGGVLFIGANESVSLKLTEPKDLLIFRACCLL
METHOD_SUMMARY: MPI inhibition at elevated mannose 6-phosphate – biochemical, fluorescence intensity, high mannose 6-phosphate, primary screen (AID 1220)
COND: recombinant PMI enzyme, coupled fluorescence intensity; at 20 µM; active compounds read high
In all, about 190,000 compounds went through this assay and about 1,300 (0.68%) were called active. This excerpt belongs to a sample that is enriched for actives.
The following compounds are shown together with reported inhibition values.
Expressed in %, but write only the number.

Recorded inhibition, per entry:
GIVEN_SMILES	VALUE_TYPE	UNIT_OF_MEASURE	TEST_RESULT
O=C(O)c1ccccc1/C=N/Nc1nc(N2CCCCC2)nc(N2CCCCC2)n1	inhibition	%	-0.2
COc1ccc2[nH]c(=O)c(CN(CCO)C(=O)NCc3ccccc3)cc2c1	inhibition	%	3.9
COc1ccc(/C=N/Nc2nc(N3CCCC3)nc(N3CCCC3)n2)cc1	inhibition	%	0.1
C(=N\Nc1nc(N2CCCCCC2)nc(N2CCCCCC2)n1)/c1ccccc1	inhibition	%	23.1

Problem: Give its inhibition value. Item: Cc1nc(-c2ccccc2)nc2[nH]c(C(C)C)cc(=O)c12
Solution: 16.9
